In this section, each of the compounds is paired with its reported Ki.
# tested system: Glutamate receptor ionotropic, kainate 3 (Rattus norvegicus, UniProt P42264)
# Sequence (P42264 whole entry, the tested form may be a part): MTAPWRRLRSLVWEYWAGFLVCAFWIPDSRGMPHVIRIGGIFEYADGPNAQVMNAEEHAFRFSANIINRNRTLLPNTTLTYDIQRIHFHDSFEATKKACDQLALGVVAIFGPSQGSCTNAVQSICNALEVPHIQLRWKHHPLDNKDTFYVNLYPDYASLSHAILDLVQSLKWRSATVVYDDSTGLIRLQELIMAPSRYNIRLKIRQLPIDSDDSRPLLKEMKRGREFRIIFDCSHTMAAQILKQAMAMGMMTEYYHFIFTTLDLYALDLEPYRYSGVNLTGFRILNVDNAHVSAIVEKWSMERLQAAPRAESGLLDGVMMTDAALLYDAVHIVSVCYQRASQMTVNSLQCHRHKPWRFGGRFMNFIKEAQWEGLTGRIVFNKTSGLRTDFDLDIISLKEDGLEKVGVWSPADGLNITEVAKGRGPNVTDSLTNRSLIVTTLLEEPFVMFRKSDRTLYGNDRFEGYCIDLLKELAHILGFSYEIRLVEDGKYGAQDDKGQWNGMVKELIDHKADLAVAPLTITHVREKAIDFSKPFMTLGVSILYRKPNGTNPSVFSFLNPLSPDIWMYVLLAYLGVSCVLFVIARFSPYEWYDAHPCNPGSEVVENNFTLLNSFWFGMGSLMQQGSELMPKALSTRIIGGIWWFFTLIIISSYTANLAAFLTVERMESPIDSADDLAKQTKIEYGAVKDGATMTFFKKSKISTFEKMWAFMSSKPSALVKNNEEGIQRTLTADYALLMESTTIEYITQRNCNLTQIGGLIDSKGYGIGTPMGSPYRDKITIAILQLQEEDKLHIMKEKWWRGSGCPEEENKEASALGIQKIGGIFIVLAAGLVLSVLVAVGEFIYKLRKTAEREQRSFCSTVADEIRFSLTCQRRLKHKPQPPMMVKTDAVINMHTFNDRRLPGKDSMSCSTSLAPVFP
# protocol details: Displacement of [3H]kainic acid from eGFP-fused recombinant rat full length GluK3 receptor expressed in HEK293T/17 cells by liquid scintillation counting method
# Assay type: cell-based
# protocol conditions: read-out: Ki

Task: State its Ki for this compound: "O=C(O)c1cccc(S[C@@H]2CN[C@H](C(=O)O)C2)c1"
Output: > 100 µM

Task: In one line, give reported Ki of the entry "O=C(O)c1ccccc1S[C@H]1CN[C@H](C(=O)O)C1" .
Output: 22 µM

Task: State, in one line, measured Ki of "O=C(O)c1c(O[C@H]2CN[C@H](C(=O)O)C2)ccc2ccccc12"
Output: 137 µM

Task: Write down Ki measured for item "O=C(O)c1ccccc1O[C@@H]1CN[C@H](C(=O)O)C1"
Output: > 100 µM

Task: Please list Ki recorded for the compound "O=C(O)c1ccccc1S[C@@H]1CN[C@H](C(=O)O)C1"
Output: > 100 µM

Task: Read off the recorded Ki for "O=C(O)c1cccc(O[C@H]2CN[C@H](C(=O)O)C2)c1"
Output: > 1000 µM

====

The compounds listed here are annotated with their pKi.
# protocol details: Displacement of [3H]kainic acid from kainate receptor in rat brain synaptosomal membranes after 60 mins by TopCount microplate scintillation counting method
# Format: cell membranes
pKi: −log10 of the molar value.

Look over these answered cases.
>  <compound>
Cl.O=C(O)c1cccc(C[C@H]2CN[C@H](C(=O)O)C2)c1

>  <experimental result>
< 4.00

$$$$
>  <compound>
O=C(O)c1cccc(O[C@@H]2CN[C@H](C(=O)O)C2)c1

>  <experimental result>
< 4.00

$$$$
>  <compound>
O=C(O)c1ccccc1O[C@H]1CN[C@H](C(=O)O)C1

>  <experimental result>
< 4.00

$$$$

Task: Return the recorded pKi value; entry: "Cl.O=C(O)c1ccc(O[C@H]2CN[C@H](C(=O)O)C2)cc1"
Output: < 4.00

Task: Answer with reported pKi of "Cc1cccc(C(=O)O)c1O[C@H]1CN[C@H](C(=O)O)C1"
Output: < 4.00

Task: Name the recorded pKi of the compound listed here: "O=C(O)c1ccccc1S[C@@H]1CN[C@H](C(=O)O)C1"
Output: < 4.00

Task: Provide pKi value for the following compound: "O=C(O)c1ccccc1S[C@H]1CN[C@H](C(=O)O)C1"
Output: < 4.00

Task: For the compound "O=C(O)c1ccc2ccccc2c1O[C@H]1CN[C@H](C(=O)O)C1" , report pKi.
Output: < 4.00

Task: Hello, please tell me recorded pKi for this one: "O=C(O)c1cccc(S[C@@H]2CN[C@H](C(=O)O)C2)c1"
Output: < 4.00

====

# tested system: Glutamate receptor ionotropic, kainate 1 (Rattus norvegicus, UniProt P22756)
# Sequence (P22756 whole entry, the tested form may be a part): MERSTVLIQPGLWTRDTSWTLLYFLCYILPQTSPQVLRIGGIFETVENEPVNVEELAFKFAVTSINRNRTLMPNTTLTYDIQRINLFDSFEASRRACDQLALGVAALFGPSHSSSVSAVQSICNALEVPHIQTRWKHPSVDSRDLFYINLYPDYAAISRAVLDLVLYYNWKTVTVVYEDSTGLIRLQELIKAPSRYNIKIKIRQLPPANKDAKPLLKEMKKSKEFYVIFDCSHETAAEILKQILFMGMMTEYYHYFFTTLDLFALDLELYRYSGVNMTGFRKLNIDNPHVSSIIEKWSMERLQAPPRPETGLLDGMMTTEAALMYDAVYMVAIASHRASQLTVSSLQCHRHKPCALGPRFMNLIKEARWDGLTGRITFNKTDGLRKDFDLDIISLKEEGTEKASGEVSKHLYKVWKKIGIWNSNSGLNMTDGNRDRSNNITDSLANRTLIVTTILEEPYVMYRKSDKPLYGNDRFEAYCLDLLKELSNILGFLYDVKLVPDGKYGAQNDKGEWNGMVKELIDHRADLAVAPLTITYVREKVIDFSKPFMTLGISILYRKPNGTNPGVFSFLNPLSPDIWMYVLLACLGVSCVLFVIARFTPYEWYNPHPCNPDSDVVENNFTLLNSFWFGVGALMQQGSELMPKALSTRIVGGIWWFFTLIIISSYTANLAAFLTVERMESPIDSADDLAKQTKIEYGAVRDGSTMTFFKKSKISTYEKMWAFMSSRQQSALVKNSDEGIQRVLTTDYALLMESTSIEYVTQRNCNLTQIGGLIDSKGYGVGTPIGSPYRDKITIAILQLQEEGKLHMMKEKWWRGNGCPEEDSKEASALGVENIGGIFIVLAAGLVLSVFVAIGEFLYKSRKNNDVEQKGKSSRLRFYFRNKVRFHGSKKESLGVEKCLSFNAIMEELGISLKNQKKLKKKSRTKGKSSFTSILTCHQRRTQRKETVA
# protocol details: Displacement of [3H]NF608 from eGFP-fused recombinant rat full length GluK1 receptor expressed in HEK293T/17 cells by liquid scintillation counting method
# Format: cell-based
# protocol conditions: read-out: Ki
quantity: Ki (µM)

>  <compound>
CC(=O)c1ccc(O[C@H]2CN[C@H](C(=O)O)C2)c(C(=O)O)c1

>  <readout units>
µM

>  <Ki>
4.7

$$$$

I: O=C(O)c1cccc(O[C@H]2CN[C@H](C(=O)O)C2)c1
II: O=C(O)c1c(O[C@H]2CN[C@H](C(=O)O)C2)ccc2ccccc12
Task: Recorded Ki values differ for I and II ; which one is higher? Kindly state the label of the option you pick.
Output: I
(I: 36 µM, II: 4.5 µM)

This collection of values is drawn from ChEMBL document CHEMBL4000194.
